# Test: Binding affinity to r(CUG) repeat RNA (unknown origin)
pKd: −log10 of the molar value.
Listed here: items and their measured pKd.

Smiles Entry | pKd
COc1ccc2nc3cc(Cl)ccc3c(NCCCCNc3nc(N)nc(N)n3)c2c1 | 8.28
Nc1cccc(-c2nc3cc(-c4ccc5[nH]c(-c6cccc(N)c6)nc5c4)ccc3[nH]2)c1 | 7.15

----------
Listed here: items and their measured Kd.
# Test: Binding affinity to HIV1 TAR RNA
# Set-up: species or system Human immunodeficiency virus 1

Smiles Entry | Kd (nM)
CC(=O)Nc1nc(-c2cccc(NC(=O)[C@H](N)Cc3c[nH]cn3)c2)cs1 | 17500
Cc1ccc2c(N)c(C(=O)Nc3cccc(C(F)(F)F)c3)sc2n1 | 2400
CCN[C@@H]1C[C@H](N)[C@@H](O[C@H]2OC(CN)=CC[C@H]2N)[C@H](O)[C@H]1O[C@H]1OC[C@](C)(O)[C@H](NC)[C@H]1O | 1350
